Where do these numbers come from? They come from patent US12668600B2.

# measuredTarget: KRAS WT (Homo sapiens)
# Sequence (P01116 1-188 isoform P01116-2): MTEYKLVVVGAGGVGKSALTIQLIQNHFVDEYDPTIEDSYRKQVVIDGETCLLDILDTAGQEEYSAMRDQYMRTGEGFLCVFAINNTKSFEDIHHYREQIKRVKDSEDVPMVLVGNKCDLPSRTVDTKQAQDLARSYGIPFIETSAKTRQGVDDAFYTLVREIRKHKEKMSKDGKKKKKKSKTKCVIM
# test: HTRF KRAS-SOS1 interaction assay, wildtype KRAS
# experimentalParameters: binned ≤2 μM / >2 μM, read-out: Inhibition of KRAS WT (IC50)
pIC50: −log10 of the molar value.
measuredAttribute: pIC50

Observe how each entry below is paired with its result.
CCO/N=C(\C)CCC[C@H](c1cccnc1N)N1CCOc2c(C(F)(F)F)c(-c3ccc(F)c4sc(N)c(C#N)c34)c(F)c3nc(OC[C@@]45CCCN4C[C@H](F)C5)nc1c23 (single isomer, unassigned) [Compound 720]	≥ 5.70
CCON=C(C)CC[C@H](c1cccnc1N)N1CCOc2c(C(F)(F)F)c(-c3ccc(F)c4sc(N)c(C#N)c34)c(F)c3nc(OC[C@@]45CCCN4C[C@H](F)C5)nc1c23 (mixture of isomers)	≥ 5.70
C[C@H](c1cc(F)cnc1N)N1CCOc2c(C(F)(F)F)c(-c3ccc(F)c4sc(N)c(C#N)c34)c(F)c3nc(OC[C@@]45CCCN4C[C@@]4(CC4(F)F)C5)nc1c23	≥ 5.70
C[C@H](c1cccnc1N)N1CCOc2c(Cl)c(-c3ccc(F)c4sc(N)c(C#N)c34)c(F)c3nc(OC[C@@]45CCCN4CC(CP(C)(C)=O)C5)nc1c23 (mixture of isomers)	≥ 5.70

// recorded pIC50 for CC(Oc1nc2c3c(c(Cl)c(-c4ccc(F)c5sc(N)c(C#N)c45)c(F)c3n1)OCCN2[C@H](C)c1cccnc1N)[C@@H]1CC(F)(F)CN1C (single isomer, unassigned) [Compound 919] : ≥ 5.70

* * *

# measuredTarget: KRAS G12D (Homo sapiens, UniProt P01116, G12D)
# Sequence (P01116 1-188 isoform P01116-2 G12D): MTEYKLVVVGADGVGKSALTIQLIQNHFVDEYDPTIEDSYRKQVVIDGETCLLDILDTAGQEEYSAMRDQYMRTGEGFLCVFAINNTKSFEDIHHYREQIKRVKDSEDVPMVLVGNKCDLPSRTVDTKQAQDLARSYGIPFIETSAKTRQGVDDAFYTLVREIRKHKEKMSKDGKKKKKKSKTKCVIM
# test: HTRF KRAS-SOS1 interaction assay, KRAS G12D
# experimentalParameters: binned ≤2 μM / >2 μM, read-out: Inhibition of KRAS G12D (IC50)
pIC50: −log10 of the molar value.
Recorded pIC50 values for a group of compounds are listed next.

Completed entries (count: 2):
C[C@H](c1ccc(C#N)nc1N)N1CCOc2c(Cl)c(-c3ccc(F)c4sc(N)c(C#N)c34)c(F)c3nc(OC[C@@]45CCCN4C[C@H](F)C5)nc1c23	≥ 5.70
C=C1CN2CC(=C)CC2(COc2nc3c4c(c(C(F)(F)F)c(-c5ccc(F)c6sc(N)c(C#N)c56)c(F)c4n2)OCCN3[C@H](C)c2cccnc2N)C1 (single isomer, unassigned)	≥ 5.70

Now, please, on to the next compound.
Test item C#CCC(c1cccnc1N)N1CCOc2c(Cl)c(-c3ccc(F)c4sc(N)c(C#N)c34)c(F)c3nc(OC[C@@]45CCCN4C[C@H](F)C5)nc1c23 (single isomer, unassigned) ; KRAS G12D (Homo sapiens, UniProt P01116, G12D); reported pIC50 was ≥ 5.70

* * *

# measuredTarget: KRAS WT (Homo sapiens)
# test: HTRF KRAS-SOS1 interaction assay, wildtype KRAS
# experimentalParameters: binned ≤2 μM / >2 μM, read-out: Inhibition of KRAS WT (IC50)
Reported IC50 values follow for various compounds

The reported IC50 of the compound `C[C@@H]1CN(CC2(COc3nc4c5c(c(C(F)(F)F)c(-c6ccc(F)c7sc(N)c(C#N)c67)c(F)c5n3)OCCN4[C@H](C)c3cccnc3N)CC2)C[C@H](C)O1` was ≤ 2 µM

Value of IC50 reported for the compound `N#Cc1c(N)sc2c(F)ccc(-c3c(C(F)(F)F)c4c5c(nc(OC[C@@]67CCCN6C[C@H](F)C7)nc5c3F)N([C@H](CCn3cccn3)c3cccnc3N)CCO4)c12` is ≤ 2 µM
